- Protocol notes: in vivo
- Condition parameters: Sprague-Dawley, rat, po, 3 mg/kg
Quantity kind: Cmax (ng/mL)

| Molecule | Cmax, ng/mL |
| --- | --- |
| Cl.NC(CO)(CO)CCc1ccc(-c2coc(Cc3ccc(Cl)cc3)n2)cc1 | 109 |
| COc1ccc(-c2nc(-c3ccc(CCC(N)(CO)CO)cc3)co2)cc1.Cl | 9.51 |

A. Cl.NC(CO)(CO)CCc1ccc(-c2coc(-c3ccc(Cl)cc3)n2)cc1
B. CCCCCCCCc1ccc(CCC(N)(CO)COP(=O)(O)O)cc1 (stereo not given)
Q. # return whichever of A and B has the smaller Cmax Pick one; state its label.
A. A
(A: 28.5 ng/mL, B: 385 ng/mL)

----------
- Protocol notes: in vivo
- Condition parameters: Sprague-Dawley, rat, po, 3 mg/kg
Quantity kind: Tmax (h)

| Compound | Reading unit | Tmax |
| --- | --- | --- |
| COc1ccc(-c2nc(-c3ccc(CCC(N)(CO)CO)cc3)co2)cc1.Cl | h | 4.7 |
| CCCCCCCCc1ccc(CCC(N)(CO)COP(=O)(O)O)cc1 (stereo not given) | h | 6 |

I. CCCCCCCCc1ccc(CCC(N)(CO)CO)cc1
II. Cl.NC(CO)(CO)CCc1ccc(-c2coc(Cc3ccc(Cl)cc3)n2)cc1
Q. # return whichever of I and II has the smaller Tmax Pick one; state its label.
A. II

----------
- Protocol notes: in vivo
- Condition parameters: Sprague-Dawley, rat, po, 3 mg/kg
Quantity kind: half-life (h)

| Chemical structure | half-life / h |
| --- | --- |
| Cl.NC(CO)(CO)CCc1ccc(-c2coc(-c3ccc(Cl)cc3)n2)cc1 | 18.8 |

a. Cl.NC(CO)(CO)CCc1ccc(-c2coc(Cc3ccc(Cl)cc3)n2)cc1
b. COc1ccc(-c2nc(-c3ccc(CCC(N)(CO)CO)cc3)co2)cc1.Cl
Q. Lab notebook, comparison: a versus b , higher half-life goes to which? Pick one; state its label.
A. a
(a: 21.1 h, b: 5.2 h)

----------
- Protocol notes: in vivo
- Condition parameters: Sprague-Dawley, rat, po, 3 mg/kg
Quantity kind: Vd/F (L/kg)

| Chemical structure | Reading unit | Vd/F |
| --- | --- | --- |
| Cl.NC(CO)(CO)CCc1ccc(-c2coc(Cc3ccc(Cl)cc3)n2)cc1 | L/kg | 44.1 |

P. COc1ccc(-c2nc(-c3ccc(CCC(N)(CO)CO)cc3)co2)cc1.Cl
Q. Cl.NC(CO)(CO)CCc1ccc(-c2coc(-c3ccc(Cl)cc3)n2)cc1
Q. # return whichever of P and Q has the smaller Vd/F Pick one; state its label.
A. Q

----------
- Protocol notes: in vivo
- Condition parameters: Sprague-Dawley, rat, po, 3 mg/kg
Quantity kind: CL/F (mL/min/kg)

a. COc1ccc(-c2nc(-c3ccc(CCC(N)(CO)CO)cc3)co2)cc1.Cl
b. Cl.NC(CO)(CO)CCc1ccc(-c2coc(-c3ccc(Cl)cc3)n2)cc1
c. Cl.NC(CO)(CO)CCc1ccc(-c2coc(Cc3ccc(Cl)cc3)n2)cc1
Q. Order the above compounds by increasing CL/F. Write the labels out in the order the request specifies.
A. c, b, a
(c: 25 mL/min/kg, b: 36.7 mL/min/kg, a: 692 mL/min/kg)

Origin of the recorded values: ChEMBL document CHEMBL3352708
